Each entry below carries its reported Population Pyknosed Nuclei (%).
# Test system: Fibroblast
# run description: Multiplex assay against human fibroblast
# Type: toxicity, cell-based
# run parameters: 12 h, 1 µM, compound concentration 1 uM, replicate 2
result type: Population Pyknosed Nuclei (%)

{"compound structure": "Cc1ccc(/C(=C\\CN2CCCC2)c2ccccn2)cc1", "unit abbreviation": "%", "value": 25}
{"compound structure": "O=C(O)c1cc2ccccc2c(Cc2c(O)c(C(=O)O)cc3ccccc23)c1O", "unit abbreviation": "%", "value": 19}
{"compound structure": "Oc1c(CN2CCN(c3ccccn3)CC2)cc(Cl)c2cccnc12", "unit abbreviation": "%", "value": 18}
{"compound structure": "O=C(O)Cc1ccccc1Nc1c(Cl)cccc1Cl", "unit abbreviation": "%", "value": 25}
{"compound structure": "COc1cc(NC(=O)CCN2CCC(OC(=O)Nc3ccccc3-c3ccccc3)CC2)c(Cl)cc1CNC[C@H](O)c1ccc(O)c2[nH]c(=O)ccc12", "unit abbreviation": "%", "value": 20}

###

# Tested on: Fibroblast
# run description: Multiplex assay against human fibroblast
# Assay type: toxicity, cell-based
# run parameters: 12 h, 10 µM, compound concentration 10 uM, replicate 2
Population Membrane Permeable-Phenotype (%) strictly less than 10% = 1.0. Otherwise 0.0.

{"compound": "CC[C@H]1OC(=O)[C@H](C)[C@@H](O[C@H]2C[C@@](C)(OC)[C@@H](O)[C@H](C)O2)[C@H](C)[C@@H](O[C@@H]2O[C@H](C)C[C@H](N(C)C)[C@H]2O)[C@@]2(C)CC(C)=C(O2)[C@H](C)[C@@H](O)[C@]1(C)O", "tested target": "Fibroblast", "class label": 0.0}
{"compound": "CN1CCN2c3ncccc3Cc3ccccc3C2C1 (stereo not drawn)", "tested target": "Fibroblast", "class label": 0.0}
{"compound": "COc1cc(C(=O)N(CCCc2ccccc2)Cc2ccc(CC(=O)O)cc2)cc(OC)c1C", "tested target": "Fibroblast", "class label": 1.0}
{"compound": "CSCC[C@H](NC=O)C(=O)N[C@@H](CC(C)C)C(=O)N[C@@H](Cc1ccccc1)C(=O)O", "tested target": "Fibroblast", "class label": 1.0}
{"compound": "Cl.Clc1ccc2nsnc2c1NC1=NCCN1 [TIZANIDINE HYDROCHLORIDE]", "tested target": "Fibroblast", "class label": 1.0}
{"compound": "CC(=O)NCCc1c(Cc2ccccc2)[nH]c2ccccc12", "tested target": "Fibroblast", "class label": 0.0}
{"compound": "Cc1ccc(C(C)(O)c2nc3ccccc3s2)c(C)c1 (stereo not drawn)", "tested target": "Fibroblast", "class label": 0.0}
{"compound": "C[C@H]1[C@H]2CC[C@H]3[C@@H]4CC=C5C[C@@H](N(C)C)CC[C@]5(C)[C@H]4CC[C@]23CN1C", "tested target": "Fibroblast", "class label": 1.0}

###

# System: U2OS
# run description: Multiplex assay against U2OS
# Assay type: toxicity, cell-based
# run parameters: human, 48 h, 10 µM, compound concentration 10 uM, replicate 1
Each entry below carries its reported Population Tubulin-Different-Phenotype (%).
result type: Population Tubulin-Different-Phenotype (%)

{"compound": "c1cc(OCCCN2CCCCC2)ccc1CN1CCCCC1", "value": "5%"}
{"compound": "CC1(COc2ccc3c(c2)ncn3-c2ccc3cccc(N4CCC(N)CC4)c3n2)COC1", "value": "56%"}
{"compound": "N[C@@]1(C(=O)O)CO[C@H]2[C@H](C(=O)O)[C@H]21", "value": "3%"}
{"compound": "CCOc1c2c(c(OCC)c3ncccc13)CN(c1ccc(CS(=O)(=O)NC(=O)Cc3ccccc3OC)cc1C)C2=O", "value": "2%"}
{"compound": "C[C@H](NC(=O)c1c(C(F)F)nn(C)c1Oc1cccc(C(F)(F)F)c1)c1ccc(C(=O)O)cc1", "value": "3%"}
{"compound": "CN1CCN(c2nc3cc(C(F)(F)F)ccc3n3cccc23)CC1.O=C(O)/C=C\\C(=O)O.O=C(O)/C=C\\C(=O)O", "value": "12%"}
{"compound": "O=C1COc2nccc(-c3ccccc3F)c2CN1Cc1cc(C(F)(F)F)cc(C(F)(F)F)c1", "value": "11%"}
{"compound": "O=C(NCCO)c1cccc(-c2cc(Nc3ccc(OC(F)(F)F)cc3)ncn2)c1", "value": "6%"}
{"compound": "C[C@H]1[C@H]2CC[C@H]3[C@@H]4CC=C5C[C@@H](N(C)C)CC[C@]5(C)[C@H]4CC[C@]23CN1C", "value": "3%"}
{"compound": "CN1CCN2c3ncccc3Cc3ccccc3C2C1 (configuration not stated)", "value": "5%"}
{"compound": "CCCN1CCC[C@@H]2Cc3n[nH]cc3C[C@H]21.Cl [QUINPIROLE HYDROCHLORIDE]", "value": "3%"}
{"compound": "N#Cc1c(N)nc(SCc2csc(-c3ccc(Cl)cc3)n2)c(C#N)c1-c1ccc(OCCO)cc1", "value": "37%"}

Sourced from ChEMBL document CHEMBL5058577
